Assay: Plasma pharmacokinetics after intraperitoneal injection in mouse (UPLC-MS/MS)
Format: in vivo
Settings: male, ICR, mouse, plasma, ip, 10 mg/kg, IP 10 mg/kg, 8 h; read-out: Plasma concentration, individual mice 1-3
readout: concentration at 8 h (ng/mL)

>  <compound>
CC1(C)O[C@]23C[C@H]1CC[C@]2(C)CCC=C3CCCC(F)(F)F

>  <measurement units>
ng/mL

>  <concentration at 8 h>
3.17

$$$$
>  <compound>
CCCCC1=CCC[C@@]2(C)CC[C@@H]3C[C@]12OC3(C)C [BAF, 4-butyl-α-agarofuran, reference compound]

>  <measurement units>
ng/mL

>  <concentration at 8 h>
4.03

$$$$

###

Experiment: Plasma pharmacokinetics after intraperitoneal injection in mouse (UPLC-MS/MS)
Assay type: in vivo
Details: male, ICR, mouse, plasma, ip, 10 mg/kg, IP 10 mg/kg, 2 h; read-out: Plasma concentration, Mean
readout: concentration at 2 h (ng/mL)

1 = CC1(C)O[C@]23C[C@H]1CC[C@]2(C)CCC=C3CCCC(F)(F)F [Compound 2]
2 = CCCCC1=CCC[C@@]2(C)CC[C@@H]3C[C@]12OC3(C)C [BAF, 4-butyl-α-agarofuran, reference compound]
Lookup: Please compare: 1 and 2 . Report which one has the smaller concentration at 2 h value. I would appreciate it if you answered with the label of your choice.
Found: 2
(2: 6.52 ng/mL, 1: 20 ng/mL)

###

Assay: Plasma pharmacokinetics after intraperitoneal injection in mouse (UPLC-MS/MS)
Format: in vivo
Conditions: male, ICR, mouse, plasma, ip, 10 mg/kg, IP 10 mg/kg, 2 h; read-out: Plasma concentration, individual mice 1-3
readout: concentration at 2 h (ng/mL)

1 = CCCCC1=CCC[C@@]2(C)CC[C@@H]3C[C@]12OC3(C)C [BAF, 4-butyl-α-agarofuran, reference compound]
2 = CC1(C)O[C@]23C[C@H]1CC[C@]2(C)CCC=C3CCCC(F)(F)F
Lookup: Sorting by concentration at 2 h in descending order, would 1 or 2 appear first? I would appreciate it if you answered with the label of your choice.
Found: 2
(2: 19.7 ng/mL, 1: 6.1 ng/mL)

Reference source for all entries: patent US20230391741A1
